# STUDY TARGET: HLA-C0102 (Homo sapiens, UniProt P10321, A176E/A330V/A35S/A97T/C350S/D114A/D33F/L171W/L180R/L218V/M285V/M309V/M331V/P208H/Q277E/Q291P/R121W/R243W/R30K/S123C/S140Y/S297R/T329A/T363A/V272M/V319A)
# ASSAY TEXT: Competitive peptide binding assay, CIR-C0102
# EXPERIMENTAL SETUP: HMy2.CIR-C0102 cells, reference Cy5-[…], class from inhibition at 5 and 15 μM, flow cytometry MFI; read-out: Binding affinity with HLA-C0102
pIC50: −log10 of the molar value. Peptide text beside a SMILES is read from it.
ENDPOINT LABEL: pIC50

Here are 5 molecules together with their reported answers.
C[C@H](NC(=O)[C@H](CO)NC(=O)[C@H](C)NC(=O)[C@H](CO)NC(=O)[C@@H]1CCCN1C(=O)[C@H](C)NC(=O)[C@@H](N)Cc1ccccc1)C(=O)N[C@@H](Cc1ccccc1)C(=O)N[C@@H](Cc1ccccc1)C(=O)O [Epitope M16] (H-FAPSASAFF-OH; N-terminus and C-terminus assumed) | 4.82 to 5.30
CC(C)[C@H](NC(=O)CNC(=O)[C@H](Cc1c[nH]cn1)NC(=O)[C@@H]1CCCN1C(=O)[C@H](C)NC(=O)[C@H](CO)NC(=O)[C@@H](N)CCC(N)=O)C(=O)N[C@H](C(=O)N[C@@H](Cc1ccccc1)C(=O)O)C(C)C [Epitope M69] (H-QSAPHGVVF-OH; N-terminus and C-terminus assumed) | < 4.82
CC(C)C[C@H](NC(=O)[C@H](CCC(=O)O)NC(=O)[C@H](Cc1ccccc1)NC(=O)[C@H](CO)NC(=O)[C@H](CC(C)C)NC(=O)[C@@H](NC(=O)[C@@H](NC(=O)[C@@H](NC(=O)[C@H](CCCNC(=N)N)NC(=O)[C@@H](N)Cc1ccc(O)cc1)C(C)C)C(C)C)C(C)C)C(=O)O [Epitope M156] (H-YRVVVLSFEL-OH; N-terminus and C-terminus assumed) | 4.82 to 5.30
CC[C@H](C)[C@H](N)C(=O)N[C@@H](C)C(=O)N[C@@H](CCSC)C(=O)N[C@@H](C)C(=O)N[C@@H](CS)C(=O)N[C@@H](CC(C)C)C(=O)N[C@H](C(=O)NCC(=O)N[C@@H](CC(C)C)C(=O)O)C(C)C [Epitope M44] (H-IAMACLVGL-OH; N-terminus and C-terminus assumed) | > 5.30
CC[C@H](C)[C@H](NC(=O)[C@@H]1CCCN1C(=O)[C@H](CCSC)NC(=O)[C@H](CC(C)C)NC(=O)[C@H](CC(C)C)NC(=O)[C@H](CO)NC(=O)[C@H](Cc1ccc(O)cc1)NC(=O)[C@@H](N)Cc1ccc(O)cc1)C(=O)N[C@@H](CC(C)C)C(=O)O [Epitope M95] | 4.82 to 5.30

Query block: Can you share its pIC50? I mean this molecule: CC[C@H](C)[C@H](N)C(=O)N[C@@H](C)C(=O)N[C@@H](CC(N)=O)C(=O)N[C@@H](CCC(N)=O)C(=O)N[C@@H](Cc1ccccc1)C(=O)N[C@@H](CC(N)=O)C(=O)N[C@@H](CO)C(=O)N[C@@H](C)C(=O)N[C@H](C(=O)O)[C@@H](C)CC [Epitope M37] (H-IANQFNSAI-OH; N-terminus and C-terminus assumed)
Result block: > 5.30

Query block: Can you share its pIC50? I mean this molecule: CC[C@H](C)[C@H](NC(=O)[C@H](CC(N)=O)NC(=O)[C@H](CC(=O)O)NC(=O)[C@H](CO)NC(=O)[C@H](CO)NC(=O)[C@@H](N)CO)C(=O)N[C@@H](C)C(=O)N[C@@H](CC(C)C)C(=O)N[C@@H](CC(C)C)C(=O)O [Epitope M111] (H-SSSDNIALL-OH; N-terminus and C-terminus assumed)
Result block: < 4.82

Query block: Can you share its pIC50? I mean this molecule: CC[C@H](C)[C@H](NC(=O)[C@H](CCCNC(=N)N)NC(=O)[C@H](CC(C)C)NC(=O)[C@H](CCSC)NC(=O)[C@H](CC(N)=O)NC(=O)[C@@H]1CCCN1C(=O)[C@H](CCSC)NC(=O)[C@H](C)NC(=O)[C@@H](N)CCCNC(=N)N)C(=O)O [Epitope M30] (H-RAMPNMLRI-OH; N-terminus and C-terminus assumed)
Result block: 4.82 to 5.30

Query block: Can you share its pIC50? I mean this molecule: C[C@H](NC(=O)[C@H](Cc1ccc(O)cc1)NC(=O)[C@H](C)NC(=O)[C@@H](N)Cc1ccccc1)C(=O)N[C@@H](CC(N)=O)C(=O)N[C@@H](CCCNC(=N)N)C(=O)N[C@@H](CC(N)=O)C(=O)N[C@@H](CCCNC(=N)N)C(=O)N[C@@H](Cc1ccccc1)C(=O)O [Epitope M43] (H-FAYANRNRF-OH; N-terminus and C-terminus assumed)
Result block: < 4.82

Query block: Can you share its pIC50? I mean this molecule: CC[C@H](C)[C@H](N)C(=O)N[C@H](C(=O)N[C@@H](CC(N)=O)C(=O)N[C@@H](CO)C(=O)N[C@H](C(=O)N[C@@H](CC(C)C)C(=O)N[C@@H](CC(C)C)C(=O)N[C@@H](Cc1ccccc1)C(=O)N[C@@H](CC(C)C)C(=O)O)C(C)C)C(C)C [Epitope M7] (H-IVNSVLLFL-OH; N-terminus and C-terminus assumed)
Result block: > 5.30

Query block: Can you share its pIC50? I mean this molecule: CC[C@H](C)[C@H](NC(=O)[C@H](CCCNC(=N)N)NC(=O)[C@H](CO)NC(=O)[C@H](CCSC)NC(=O)CNC(=O)[C@@H](N)Cc1ccccc1)C(=O)NCC(=O)N[C@@H](CCSC)C(=O)N[C@@H](CCC(=O)O)C(=O)N[C@H](C(=O)O)C(C)C [Epitope M19] (H-FGMSRIGMEV-OH; N-terminus and C-terminus assumed)
Result block: < 4.82

Query block: Can you share its pIC50? I mean this molecule: CC[C@H](C)[C@H](NC(=O)[C@@H](NC(=O)[C@@H](N)CO)[C@@H](C)CC)C(=O)N[C@@H](C)C(=O)N[C@@H](Cc1ccc(O)cc1)C(=O)N[C@H](C(=O)N[C@@H](CCSC)C(=O)N[C@@H](CO)C(=O)N[C@@H](CC(C)C)C(=O)O)[C@@H](C)O [Epitope M86] (H-SIIAYTMSL-OH; N-terminus and C-terminus assumed)
Result block: 4.82 to 5.30
